Task for the reader: assign each of the following binders its reported Positive (%).
Molecular target: T1, BCMA on cells (293T cells transfected with BCMA; H929, MM.1S and U266 cell lines expressing BCMA) (human, UniProt Q02223 1-184)
T1 construct: H929, MM.1S and U266 carry the native protein; also called B-cell Maturation Antigen; TNFRSF17
T1 sequence: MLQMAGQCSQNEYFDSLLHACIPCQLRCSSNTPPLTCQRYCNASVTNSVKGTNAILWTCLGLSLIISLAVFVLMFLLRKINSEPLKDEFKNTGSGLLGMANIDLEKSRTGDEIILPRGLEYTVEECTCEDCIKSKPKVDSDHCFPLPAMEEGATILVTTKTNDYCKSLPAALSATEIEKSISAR
Assay: flow cytometry, H929 cells; further: test concentration or dose not given here
The answer is to be given in %; state only the numeric part.

Please give the documented Positive (%) of SCT-Aa13(m/m) (antibody, V domains shown, Full IgG format: mouse IgG1 heavy chain constant region, mouse kappa light chain constant region) VH: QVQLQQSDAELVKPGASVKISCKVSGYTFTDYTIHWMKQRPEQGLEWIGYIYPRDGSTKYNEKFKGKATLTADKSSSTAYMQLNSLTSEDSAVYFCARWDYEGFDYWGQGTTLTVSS VL: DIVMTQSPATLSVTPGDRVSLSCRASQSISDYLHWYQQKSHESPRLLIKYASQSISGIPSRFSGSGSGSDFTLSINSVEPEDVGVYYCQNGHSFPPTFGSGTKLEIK
99.9

Please give the documented Positive (%) of SCT-Aa10(m/m) (antibody, V domains shown, Full IgG format: mouse IgG1 heavy chain constant region, mouse kappa light chain constant region) VH: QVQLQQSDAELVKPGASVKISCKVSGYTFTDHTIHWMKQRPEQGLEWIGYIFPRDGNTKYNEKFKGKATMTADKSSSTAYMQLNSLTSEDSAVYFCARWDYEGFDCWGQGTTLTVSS VL: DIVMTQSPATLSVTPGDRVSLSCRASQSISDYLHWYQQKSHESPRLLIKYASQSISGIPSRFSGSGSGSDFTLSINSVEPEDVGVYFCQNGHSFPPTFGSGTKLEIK
99.9

Please give the documented Positive (%) of SCT-Aa04(m/m) (antibody, V domains shown, Full IgG format: mouse IgG1 heavy chain constant region, mouse kappa light chain constant region) VH: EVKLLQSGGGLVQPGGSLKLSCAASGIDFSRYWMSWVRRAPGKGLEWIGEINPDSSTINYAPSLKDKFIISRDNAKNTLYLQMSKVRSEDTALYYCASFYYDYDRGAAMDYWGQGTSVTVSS VL: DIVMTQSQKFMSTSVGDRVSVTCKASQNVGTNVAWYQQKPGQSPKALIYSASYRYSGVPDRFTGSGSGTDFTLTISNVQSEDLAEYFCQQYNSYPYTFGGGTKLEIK
99.9

Please give the documented Positive (%) of SCT-Aa18(h/h) (antibody, V domains shown, Full IgG format, chimeric: human IgG1 heavy chain constant region, human kappa light chain constant region) VH: EVQLQQSGPELVKPGASVKISCKASGYTFISYVMHWVKQKPGQGLEWIGYIIPYNDGTKYNEKFKGKATLTSDKSSSTAYMELSSLTSEDSAVYYCAKWGNWDEGTWFPYWGQGTLVTVSA VL: DVLMTQTPLSLPVSLGDQASFSCRSSQSIVHSDGNTYLEWYLQKPGQSPKLLIYKISNRFSGVPDRFSGSGSGTDFTLKISRVEAEDLGVYYCFQGSHVPWTFGGGTKLEIK
97

Please give the documented Positive (%) of SCT-Aa08(m/m) (antibody, V domains shown, Full IgG format: mouse IgG1 heavy chain constant region, mouse kappa light chain constant region) VH: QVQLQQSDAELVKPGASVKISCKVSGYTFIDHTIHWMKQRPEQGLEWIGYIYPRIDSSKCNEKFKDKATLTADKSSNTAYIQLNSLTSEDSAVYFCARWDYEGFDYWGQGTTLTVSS VL: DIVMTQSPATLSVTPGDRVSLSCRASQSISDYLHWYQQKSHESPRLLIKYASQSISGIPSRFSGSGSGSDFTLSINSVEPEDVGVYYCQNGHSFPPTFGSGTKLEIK
99.9

Please give the documented Positive (%) of SCT-Aa11(m/m) (antibody, V domains shown, Full IgG format: mouse IgG1 heavy chain constant region, mouse kappa light chain constant region) VH: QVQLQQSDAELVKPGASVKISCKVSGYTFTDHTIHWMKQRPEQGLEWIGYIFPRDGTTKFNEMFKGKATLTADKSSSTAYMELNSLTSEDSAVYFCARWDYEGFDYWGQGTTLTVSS VL: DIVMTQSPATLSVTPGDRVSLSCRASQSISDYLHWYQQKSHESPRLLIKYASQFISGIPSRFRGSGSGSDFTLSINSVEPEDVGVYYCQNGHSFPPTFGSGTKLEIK
99.9

Please give the documented Positive (%) of SCT-Aa16(h/h) (antibody, V domains shown, Full IgG format, chimeric: human IgG1 heavy chain constant region, human kappa light chain constant region) VH: EVQLQQSGPELVKPGASVKMSCKGSGYTFTNYIMHWVKQKPGQGLEWIGYIIPYNDNTKYNEKFKGKATLTSDKSSSTAYMELSSLTSEDSAVYYCATYEYDVGLDYWGQGTTLTVSS VL: DLQMTQTTSSLSASLGDRVTISCSARQGIVNYLNWYQQKPDGTVKLLIYNTSSLHSGVPSRFSGSGSGTDYSLTISNLEPEDIATYYCQQYSKLPWTFGGGTKLEIK
96.1

Please give the documented Positive (%) of SCT-Aa03(m/m) (antibody, V domains shown, Full IgG format: mouse IgG1 heavy chain constant region, mouse kappa light chain constant region) VH: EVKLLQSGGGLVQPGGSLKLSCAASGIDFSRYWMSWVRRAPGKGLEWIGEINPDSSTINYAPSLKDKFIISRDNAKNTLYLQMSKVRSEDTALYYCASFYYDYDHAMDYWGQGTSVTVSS VL: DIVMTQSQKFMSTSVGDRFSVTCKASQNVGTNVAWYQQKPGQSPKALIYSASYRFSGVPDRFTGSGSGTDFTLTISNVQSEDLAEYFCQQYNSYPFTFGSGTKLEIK
99.9

Please give the documented Positive (%) of SCT-Aa04(h/h) (antibody, V domains shown, Full IgG format, chimeric: human IgG1 heavy chain constant region, human kappa light chain constant region) VH: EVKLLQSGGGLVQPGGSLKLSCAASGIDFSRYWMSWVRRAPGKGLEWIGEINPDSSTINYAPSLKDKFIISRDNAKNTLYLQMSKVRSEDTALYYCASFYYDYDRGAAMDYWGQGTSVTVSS VL: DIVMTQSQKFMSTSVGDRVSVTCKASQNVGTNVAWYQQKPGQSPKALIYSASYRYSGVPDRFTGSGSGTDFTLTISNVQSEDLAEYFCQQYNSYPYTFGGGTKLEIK
96.5

Please give the documented Positive (%) of SCT-Aa06(h/h) (antibody, V domains shown, Full IgG format, chimeric: human IgG1 heavy chain constant region, human kappa light chain constant region) VH: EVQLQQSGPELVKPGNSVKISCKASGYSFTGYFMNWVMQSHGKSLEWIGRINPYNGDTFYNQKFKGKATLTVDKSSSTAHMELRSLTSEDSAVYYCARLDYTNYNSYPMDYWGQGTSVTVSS VL: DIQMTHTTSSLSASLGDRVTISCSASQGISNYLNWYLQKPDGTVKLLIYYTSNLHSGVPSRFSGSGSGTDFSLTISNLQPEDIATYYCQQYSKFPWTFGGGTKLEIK
99.6
